Source of measurements: patent US20220363770A1

Answer each item with its documented Mutant vs. 4E4.2 Parent B/D Ratio.
target: T1, human CGRP receptor extracellular domain (ECD) (human, UniProt Q16602 23-138; O60894 27-117); experiment: yeast-displayed Fab, FACS, 1 nM human CGRP receptor ECD
T1 construct: also called CGRP receptor ECD; human CGRP receptor ECD
T1 sequence (Q16602 23-138 limits assumed, chain 1 of 2): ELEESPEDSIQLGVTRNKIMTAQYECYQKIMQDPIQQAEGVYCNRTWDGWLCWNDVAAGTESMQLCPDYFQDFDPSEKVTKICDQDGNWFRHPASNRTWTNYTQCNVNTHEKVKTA
T1 sequence (O60894 27-117 limits assumed, chain 2 of 2): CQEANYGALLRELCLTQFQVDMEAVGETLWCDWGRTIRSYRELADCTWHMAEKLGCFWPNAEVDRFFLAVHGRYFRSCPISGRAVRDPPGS
Answers are plain numbers, in fold.

binder="anti-CGRP receptor variant 05, yeast-displayed Fab (Fab, V domains shown, also called Variant Ab ID 05) VH: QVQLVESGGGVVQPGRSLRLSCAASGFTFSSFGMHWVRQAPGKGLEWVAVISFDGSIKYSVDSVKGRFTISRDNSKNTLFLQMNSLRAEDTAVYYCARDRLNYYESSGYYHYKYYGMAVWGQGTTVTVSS VL: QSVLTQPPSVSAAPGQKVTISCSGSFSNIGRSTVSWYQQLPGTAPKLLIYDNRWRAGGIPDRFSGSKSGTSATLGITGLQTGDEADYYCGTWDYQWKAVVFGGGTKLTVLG" recorded_value=6.7

Exam item: Quick one: Mutant vs. 4E4.2 Parent B/D Ratio for anti-CGRP receptor variant 10, yeast-displayed Fab (Fab, V domains shown, also called Variant Ab ID 10) VH: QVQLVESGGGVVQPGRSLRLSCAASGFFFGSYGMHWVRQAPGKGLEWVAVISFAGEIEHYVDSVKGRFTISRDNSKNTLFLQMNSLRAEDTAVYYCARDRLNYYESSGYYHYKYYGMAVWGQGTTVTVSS VL: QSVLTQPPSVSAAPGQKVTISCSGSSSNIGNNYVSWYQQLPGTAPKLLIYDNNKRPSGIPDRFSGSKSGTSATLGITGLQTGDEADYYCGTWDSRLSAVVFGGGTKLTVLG ?
Marked response: 3.3
